Provenance of the data: patent US20220265629A1

- Experiment: Single ascending oral dose study in healthy volunteers: plasma pharmacokinetics
- Format: in vivo, human
- Experimental Setup: human, plasma, oral, 25 mg; read-out: AUC0-48, Geometric Mean
Readout Kind: AUC(0-t) (ng·h/mL)
Give the quantity in ng·h/mL, number only.

Query string: Please give the measured AUC(0-t) for this compound: Cn1cc(S(=O)(=O)[C@@](C)(F)C2CCN(C(=O)Nc3ccon3)CC2)c(C(F)F)n1
Result string: 6320

###

- Experiment: Single ascending oral dose study in healthy volunteers: plasma pharmacokinetics
- Assay type: in vivo, human
- Experimental Setup: human, plasma, oral, 48 Hours Postdose; 350 mg + 525 mg; read-out: Plasma concentration, Geometric Mean
- Description: This example describes the first-in-human study of Compound I. Based on its mechanism of action, Compound I may offer a targeted therapy for patients with DCM caused by genetic or nongenetic mechanisms. […] The concentrations of Compound I in human plasma and urine were quantitated by high performance liquid chromatography with tandem mass spectrometric detection (LC MS/MS) (Biological sample analysis study report Alturas AD17-726). […]
Readout Kind: concentration at 48 h (ng/mL)
Give the quantity in ng/mL, number only.

Query string: Please give the measured concentration at 48 h for this molecule: Cn1cc(S(=O)(=O)[C@@](C)(F)C2CCN(C(=O)Nc3ccon3)CC2)c(C(F)F)n1
Result string: 372

###

- Experiment: Single ascending oral dose study in healthy volunteers: plasma pharmacokinetics
- Type: in vivo, human
- Experimental Setup: human, plasma, oral, doses ranging from 3 mg to 525 mg; read-out: volume of distribution (Vz/F)
Readout Kind: Vd/F

Query string: Please give the measured Vd/F for this molecule: Cn1cc(S(=O)(=O)[C@@](C)(F)C2CCN(C(=O)Nc3ccon3)CC2)c(C(F)F)n1
Result string: 58 to 166 L

###

- Experiment: Single ascending oral dose study in healthy volunteers: plasma pharmacokinetics
- Format: in vivo, human
- Experimental Setup: human, plasma, oral, 12 Hours Postdose; 350 mg + 525 mg; read-out: Plasma concentration, Median
Readout Kind: concentration at 12 h

Query string: Please give the measured concentration at 12 h for this compound: Cn1cc(S(=O)(=O)[C@@](C)(F)C2CCN(C(=O)Nc3ccon3)CC2)c(C(F)F)n1 [Compound I]
Result string: 1860 ng/mL

###

- Experiment: Food effect cross-over study, 200 mg (25 mg tablets), healthy volunteers: plasma pharmacokinetics
- Type: in vivo, human
- Experimental Setup: human, plasma, oral, 6 hours postdose, Fasted, read-out: Plasma concentration, Mean
Readout Kind: concentration at 6 h (ng/mL)
Give the quantity in ng/mL, number only.

Query string: Please give the measured concentration at 6 h for this molecule: Cn1cc(S(=O)(=O)[C@@](C)(F)C2CCN(C(=O)Nc3ccon3)CC2)c(C(F)F)n1
Result string: 2220

###

- Experiment: Food effect cross-over study, 200 mg (25 mg tablets), healthy volunteers: plasma pharmacokinetics
- Type: in vivo, human
- Experimental Setup: human, plasma, oral, 6 hours postdose, Fed, read-out: Plasma concentration, Mean
Readout Kind: concentration at 6 h

Query string: Please give the measured concentration at 6 h for this molecule: Cn1cc(S(=O)(=O)[C@@](C)(F)C2CCN(C(=O)Nc3ccon3)CC2)c(C(F)F)n1
Result string: 3200 ng/mL

###

- Experiment: Single ascending oral dose study in healthy volunteers: plasma pharmacokinetics
- Assay type: in vivo, human
- Experimental Setup: human, plasma, oral, 6 hours post-dose; bin 1001-2000 ng/mL (n = 9); read-out: Plasma Concentration, Median
Readout Kind: concentration at 6 h (ng/mL)
Give the quantity in ng/mL, number only.

Query string: Please give the measured concentration at 6 h for this molecule: Cn1cc(S(=O)(=O)[C@@](C)(F)C2CCN(C(=O)Nc3ccon3)CC2)c(C(F)F)n1
Result string: 1270
